Biological target: T1, Human CD40 antigen (recombinant, BLI) (human, UniProt P25942 21-193)
T1 construct: also called rh-CD40
T1 sequence (P25942 21-193 limits assumed): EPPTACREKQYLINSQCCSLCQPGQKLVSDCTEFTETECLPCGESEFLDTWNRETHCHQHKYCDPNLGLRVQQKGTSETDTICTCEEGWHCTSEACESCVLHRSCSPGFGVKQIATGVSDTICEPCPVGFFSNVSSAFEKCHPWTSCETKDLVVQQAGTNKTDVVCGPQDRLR
Experiment: BLI, VHH-His on anti-His tips, human CD40 in solution;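 further: kinetics measured at 30 °C in PBS pH 7.2, association tracked for 200 s, then dissociation followed in PBS lacking CD40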
kon for assorted binders
Field: numeric (M⁻¹ s⁻¹). Do not append units.

[
  {
    "Binder": "pgDD40-SZ-3 (VHH, not shown: small tags and cut ends) VHH: QVQLVESGGGLVQAGDSLRLSCTASGRAFNTYTMAWFRQAPGKERDFVAAISRDGTITHYADSVKGRFTTTRDNAKNTMYLQMSSLKYDDTAVYYCAARRVGAVPERESAYEHWGQGTQVTVSS",
    "Property Measured": "kon",
    "Quantitative Readout": 722000
  },
  {
    "Binder": "pgDD40-SZ-7 (VHH, not shown: small tags and cut ends) VHH: QVQLVESGGALAQPGGSLRLSCEASATVRSVNAMAWYRQGPGKPRELVANITSGDTTYYADSVKGRFTLSREGARNTVYLQMNSLKPEDTAVYQCNIHYTSTGGIRRDYWGRGTQVTVSS",
    "Property Measured": "kon",
    "Quantitative Readout": 721000
  },
  {
    "Binder": "pgDD40-SZ-5 (VHH, not shown: small tags and cut ends) VHH: QVQLVESGGALAQPGGSLRLSCEASENVRSVNAMAWYRQGPGKPRELVANITSGDATYYADSVKGRFTLSREGARNTVYLQMNSLKPEDTAVYQCNVHYTSWGGIRRDYWGRGTQVTVSS",
    "Property Measured": "kon",
    "Quantitative Readout": 784000
  },
  {
    "Binder": "pgDD40-HZ-15 (VHH, not shown: small tags and cut ends) VHH: EVQLVESGGGLVQAGGSLRLSCAASGFTFDDYAIGWFRQAPGKEREGVSCLSKNVGNTYYADSVKGRFTISSDNAKNTVYLQMNSLKPEDTAVYYCAKGSGYGCYDFPRYAVWGQGTQVTVSS",
    "Property Measured": "kon",
    "Quantitative Readout": 351000
  },
  {
    "Binder": "pgDD40-SZ-1 (VHH, not shown: small tags and cut ends) VHH: QVQLVESGGALAQPGGSLRLSCEASTNVRSVNAMAWYRQGPGKPRELVANITSDDATYYADSVKGRFTLSREGARNTVYLQMNSLKPEDTAVYQCNVHYTSWGGIRRDYWGRGTQVTVSS",
    "Property Measured": "kon",
    "Quantitative Readout": 779000
  },
  {
    "Binder": "pgDD40-HZ-47 (VHH, not shown: small tags and cut ends) VHH: QVQLVESGGGLVQPGGSMRLSCSASGFSISVYWMSWVRRAPGKGLEWVSNLGADGVTAQYSDSVKGRFTIARDTAKNTLYLQMNSLKPEDTAVYYCNAMTGMNPAEEEAYWGQGTQVTVSS",
    "Property Measured": "kon",
    "Quantitative Readout": "1.33e+06"
  }
]

Now look at this entry.
[Q] Identify measured kon associated with pgDD40-HZ-24 (VHH, not shown: small tags and cut ends, also called pgDD40-HG-24) VHH: EVQLVESGGGSVQAGGSLRLSCAASLSTFSNYRMGWFRRAPGKERELVARIEPHGVVDYGDSVKGRFTISRDNAKNTVTVYLHMNSLKPEDTAVYYCNALRLISGRYDPLFSSWGQGTQVTVSS
[A] 607000
